src = ChEMBL document CHEMBL5247633

Protocol: Antiproliferative activity against human U87 cells assessed as inhibition of cell growth incubated for 72 hrs by MTT assay
Assay type: functional, cell-based, U-87MG ATCC
Cond: U-87 MG
Reported IC50 is given for each of the following compounds.
The answer is to be given in µM; state only the numeric part.

These solved cases illustrate the format of a correct answer.
{"Compound": "CC(C)CNc1ccnc(NCc2csc(-c3ccc(C(F)(F)F)cc3)n2)n1", "Readout Units": "µM", "IC50": 20.1}
{"Compound": "c1ccc(-c2nc(CNc3nccc(N4CCCCC4)n3)cs2)cc1", "Readout Units": "µM", "IC50": 8.39}
{"Compound": "COc1cccc2c1C(=O)c1c(O)c3c(c(O)c1C2=O)C[C@@](O)(C(=O)CO)C[C@@H]3O[C@H]1C[C@H](N)[C@H](O)[C@H](C)O1", "Readout Units": "µM", "IC50": 0.25}
{"Compound": "CC(C)CNc1ccnc(NCc2csc(-c3ccccc3)n2)n1", "Readout Units": "µM", "IC50": 37.9}
{"Compound": "CC(C)CNc1ccnc(NCc2csc(-c3ccccc3)c2)n1", "Readout Units": "µM", "IC50": 30.7}

Short answer for OC1CC2CC1CN2c1ccnc(NCc2csc(-c3ccccc3)n2)n1 (stereo unspecified) : IC50 was 3.29

For record `CC(C)CNc1ccnc(NCc2csc(-c3ccc(Cl)cc3)n2)n1` the listed IC50 is 16.6

Entry `CCCCN(CCCC)c1ccnc(NCc2csc(-c3ccccc3)n2)n1` ; IC50 = 14.8

Reported IC50 ( `CCCN(CCC)c1ccnc(NCc2csc(-c3ccccc3)n2)n1` ) = 16.4

Recorded result, `c1ccc(-c2nc(CNc3nccc(NC4CCCCC4)n3)cs2)cc1` , IC50: 11.6

Field IC50 (entry `c1ccc(-c2nc(CNc3nccc(NC4CC4)n3)cs2)cc1` ) reads 72.3

Lookup result for `c1ccc(-c2nc(CNc3nccc(N4CCC4)n3)cs2)cc1` ; measured IC50: 21.5

// sample `c1ccc(-c2nc(CNc3nccc(N4CCCC4)n3)cs2)cc1` , its IC50 was 26.2

Reported IC50 for `CC(C)CNc1ccnc(NC(=O)c2csc(-c3ccccc3)n2)n1` was 59.1
